Target: the molecule itself
Test: sedimentation equilibrium analytical ultracentrifugation, monomer-dimer self-association model

Protein: R1-WT, monomeric RING domain construct of rhesus monkey TRIM5alpha (enzyme, UniProt Q0PF16 2-90, looked up, range 2-90; Expressed with N-terminal 6His-GB1-TEV tags that were removed by TEV protease; also called isolated RING monomer) ASGILLNVKEEVTCPICLELLTEPLSLHCGHSFCQACITANHKKSMLYKEGERSCPVCRISYQPENIQPNRHVANIVEKLREVKLSPEE
Kd: ~60 µM
